Selectivity D2-like/D3 listing for selected molecules.
- System: D2-like receptor (D2, D3, and D4)
- Assay name: [3H]spiperone binding assay, rat striatal
- Test settings: ratio of Ki values, rat brain preparation

{"Molecule": "CCCN(CC[C@]1(O)C[C@@H](NS(=O)(=O)c2ccccc2Cl)C1)[C@H]1CCc2nc(N)sc2C1 (relative stereo)", "Measured on": "D2-like receptor (D2, D3, and D4)", "Selectivity D2-like/D3": 485}
{"Molecule": "CCCN(CCC1(O)CC(NC(=O)c2ccccc2)C1)[C@H]1CCc2nc(N)sc2C1 (stereo in doubt)", "Measured on": "D2-like receptor (D2, D3, and D4)", "Selectivity D2-like/D3": 301}
{"Molecule": "CCCN(CCC1(O)CC(NC(=O)c2ccc(Cl)cc2)C1)[C@H]1CCc2nc(N)sc2C1 (stereo in doubt)", "Measured on": "D2-like receptor (D2, D3, and D4)", "Selectivity D2-like/D3": 157}
{"Molecule": "CCCN(CC[C@]1(O)C[C@H](NS(=O)(=O)c2ccccc2OC)C1)[C@H]1CCc2nc(N)sc2C1 (relative stereo)", "Measured on": "D2-like receptor (D2, D3, and D4)", "Selectivity D2-like/D3": 75}
{"Molecule": "CCCN(CCC1(O)CC(NC(=O)c2ccccc2OC)C1)[C@H]1CCc2nc(N)sc2C1 (stereo in doubt)", "Measured on": "D2-like receptor (D2, D3, and D4)", "Selectivity D2-like/D3": 160}
{"Molecule": "CCCN(CCC1(O)CC(NC(=O)c2ccc(-c3noc(C)n3)cc2)C1)[C@H]1CCc2nc(N)sc2C1 (stereo in doubt)", "Measured on": "D2-like receptor (D2, D3, and D4)", "Selectivity D2-like/D3": "15,208"}
